assay_protocol: NOD1 signaling inhibitors, primary screen, cell-based, luminescence, uHTS (AID 1578);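 note: HEK-293T reporter cells stimulated with the NOD1 agonist gamma-tri-DAP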
stated_conditions: NOD1-driven NF-kB luciferase reporter cells, at 4 µM
The whole screen tested about 290,000 compounds, of which about 3,000 (1%) were called active. Cut-off read from the data, not from the text of the source: active = inhibition mostly above about 36% (no sharp cut-off); inactive = mostly below about 34%. What follows is part of a selection rich in actives, with near analogues and random picks from the rest.
Outcomes: active, inactive

[[record]]
compound = "O=C(c1ccc(Br)cc1)C(CN1CCOCC1)c1ccccc1 (configuration not stated)"
class_name = "inactive"

[[record]]
compound = "CCC(=O)N1CCc2cc(S(=O)(=O)NCCC(=O)N3CCN(c4ccccc4)CC3)ccc21"
class_name = "inactive"

[[record]]
compound = "C=C1CCC[C@]2(C)C[C@H]3OC(=O)C(CNCC(OC)OC)[C@H]3CC12 (some centres not stated)"
class_name = "inactive"

[[record]]
compound = "CCOC(=O)c1c(C)oc2c1c(C=NC1CCS(=O)(=O)C1)c(O)c1ccccc12 (configuration not stated)"
class_name = "active"

[[record]]
compound = "COc1ccc(NS(=O)(=O)c2ccc(Br)cc2)cn1"
class_name = "inactive"

[[record]]
compound = "Cc1ccccc1C(=O)Nc1cc(-c2cc(C(C)(C)C)oc2C)nn1C"
class_name = "inactive"

[[record]]
compound = "COc1cc2ncnc(NCc3ccco3)c2cc1OC"
class_name = "inactive"

[[record]]
compound = "O=C(Nc1ccccc1Cl)c1ccc2ccccc2c1"
class_name = "inactive"

[[record]]
compound = "CCOC(=O)c1c(C)oc2c1c(C=NCCC(=O)O)c(O)c1ccccc12"
class_name = "inactive"

[[record]]
compound = "O=C(Oc1ccc2ccc(=O)oc2c1)c1ccc([N+](=O)[O-])cc1"
class_name = "inactive"

[[record]]
compound = "CCOC(=O)c1cc2c(nc1N)CCCC2"
class_name = "inactive"

[[record]]
compound = "CN1CCN(C(=S)Nc2ccc(Oc3ccccc3)cc2)CC1"
class_name = "inactive"

[[record]]
compound = "COc1ccc(NS(=O)(=O)c2ccc3oc4ccccc4c3c2)cn1"
class_name = "inactive"

[[record]]
compound = "O=[N+]([O-])c1cc(/C=N/O)ccc1Sc1ccccc1"
class_name = "inactive"

[[record]]
compound = "CO/N=C/c1ccc(Sc2ccc(C)cc2)c([N+](=O)[O-])c1"
class_name = "inactive"

[[record]]
compound = "O=C(CSc1ncnc2c1oc1ccccc12)NCc1ccc(F)cc1"
class_name = "inactive"

[[record]]
compound = "CCN(CC)C(=S)SC1CCCCN(C(=O)c2ccccc2)C1=O (configuration not stated)"
class_name = "active"

[[record]]
compound = "CNc1ccc(/C=C2\\COc3ccccc3C2=O)cc1[N+](=O)[O-]"
class_name = "inactive"

[[record]]
compound = "CCc1ccc(CNc2ccc3c(c2)ncn3CC)cc1"
class_name = "inactive"

[[record]]
compound = "N=c1ccn(Cc2cccc(Cl)c2)cc1"
class_name = "inactive"

[[record]]
compound = "N=c1ccn(Cc2ccc(Cl)c(Cl)c2)cc1"
class_name = "active"

[[record]]
compound = "O=C(c1ccc(F)cc1)C(CN1CCOCC1)c1ccccc1 (configuration not stated)"
class_name = "active"

[[record]]
compound = "Cc1ccc2c(c1)C(c1ccc(F)cc1)N(C(=O)c1ccc(S(=O)(=O)N(C)C)cc1)CC(=O)N2 (configuration not stated)"
class_name = "inactive"

[[record]]
compound = "N=c1ccn(Cc2ccc(Cl)cc2)cc1"
class_name = "inactive"

[[record]]
compound = "c1ccc(CNc2ncnc3sccc23)cc1"
class_name = "inactive"

[[record]]
compound = "O=C(Nc1ccc(Cl)cc1)Nc1cc([N+](=O)[O-])ccc1F"
class_name = "inactive"

[[record]]
compound = "CCc1cc2c3c(c1)C(C)CC(C)(C)N3C(=O)C2=O (configuration not stated)"
class_name = "inactive"

[[record]]
compound = "Clc1ccc2c(NCc3ccco3)ncnc2c1"
class_name = "inactive"

[[record]]
compound = "CCOc1cc2c3c(c1)C(C)CC(C)(C)N3C(=O)C2=O (configuration not stated)"
class_name = "inactive"

[[record]]
compound = "CCc1ccc(NC(=S)N2CCN(S(=O)(=O)c3ccccc3)CC2)cc1"
class_name = "inactive"

[[record]]
compound = "Cc1cccc2nc(CSc3nc4[nH]ncc4c(=O)n3-c3ccccc3Cl)cc(=O)n12"
class_name = "inactive"

[[record]]
compound = "O=C(c1ccccc1)N1CCCCC(Cl)C1=O (configuration not stated)"
class_name = "inactive"

[[record]]
compound = "CCCOc1ccc(C(=O)C(CN2CCCC2)c2ccccc2)cc1 (configuration not stated)"
class_name = "inactive"

[[record]]
compound = "COc1ccc(C(=O)C(CN2CCOCC2)c2ccccc2)cc1 (configuration not stated)"
class_name = "inactive"

[[record]]
compound = "O=C(O)c1cccc(Nc2ncnc3ccc(Br)cc23)c1"
class_name = "inactive"

[[record]]
compound = "COc1ccc2nc(SCC(=O)Nc3nccs3)[nH]c2c1"
class_name = "inactive"

[[record]]
compound = "CCCCC(=O)Nc1cc2nn(-c3ccc(OC)cc3)nc2cc1C"
class_name = "inactive"

[[record]]
compound = "CC(=O)Nc1cccc(NC(=S)Nc2ccc(F)c(Cl)c2)c1"
class_name = "inactive"

[[record]]
compound = "O=C(CSc1nc2ccccc2c(=O)n1-c1ccccc1)N1CCCc2ccccc21"
class_name = "inactive"

[[record]]
compound = "CCC(=O)Nc1cc2nn(-c3ccc(C)cc3)nc2cc1C"
class_name = "active"

[[record]]
compound = "CCC(=O)Nc1cc2nn(-c3ccc(OC)cc3)nc2cc1C"
class_name = "inactive"

[[record]]
compound = "O=C(NNC(=O)C12CC3CC(CC(C3)C1)C2)c1ccccn1"
class_name = "active"


The measurements presented in this section are drawn from PubChem BioAssay AID1578.
